Target: Nuclear receptor subfamily 1 group I member 2 (Homo sapiens) (UniProt O75469)
Sequence (O75469 whole entry, looked up): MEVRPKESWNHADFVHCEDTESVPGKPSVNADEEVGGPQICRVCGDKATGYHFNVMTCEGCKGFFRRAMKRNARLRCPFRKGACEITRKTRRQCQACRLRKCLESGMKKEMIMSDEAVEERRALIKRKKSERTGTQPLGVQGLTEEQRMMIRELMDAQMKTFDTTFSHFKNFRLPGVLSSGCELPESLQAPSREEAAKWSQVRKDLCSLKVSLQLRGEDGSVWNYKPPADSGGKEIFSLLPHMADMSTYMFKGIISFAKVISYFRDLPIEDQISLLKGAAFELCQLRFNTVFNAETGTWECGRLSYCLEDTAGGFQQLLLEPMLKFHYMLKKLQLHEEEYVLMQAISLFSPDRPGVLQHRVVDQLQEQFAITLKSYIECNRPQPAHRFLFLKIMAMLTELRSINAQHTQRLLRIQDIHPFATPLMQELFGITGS
Assay: Human pregnane X receptor (PXR) small molecule agonists, qHTS assay (AID 1346982); further: nearly all actives have a fitted effect of over 35% in size
Conditions: PXR-Luc HepG2, CYP3A4 luciferase reporter, 24 h; series mostly up to 92.4 µM
Excerpt: National Center for Advancing Translational Sciences [NCATS] NIH Chemical Genomics Center [NCGC] U.S. Environmental Protection Agency [EPA] National Institutes of Environmental Health Sciences [NIEHS] National Toxicology Program [NTP] The human pregnane X receptor (hPXR) regulates the expression of several drug metabolizing enzymes and induction of these proteins is a major mechanism for developing drug resistance in cancer. […]
Results filed as inconclusive are left out. The source made the active and inactive calls. The call rests on the fitted dose curve; in most records, active means well fitted activation curve with a large enough effect in the repeat runs; inconclusive means weak or mixed curves; inactive means no such curve, though single readings can be large or run the other way.
Outcome codes: active, inactive

# compound, experimental-system, assigned-category
rows = [
    ("CC(CN(C)C)CN1c2ccccc2CCc2ccccc21 (stereo not drawn)", "Nuclear receptor subfamily 1 group I member 2 (Homo sapiens) (UniProt O75469)", "active"),
    ("C[Si](C)(C)Cl", "Nuclear receptor subfamily 1 group I member 2 (Homo sapiens) (UniProt O75469)", "inactive"),
    ("CCC(=O)OCCc1ccccc1", "Nuclear receptor subfamily 1 group I member 2 (Homo sapiens) (UniProt O75469)", "inactive"),
    ("Cc1cnccn1", "Nuclear receptor subfamily 1 group I member 2 (Homo sapiens) (UniProt O75469)", "inactive"),
    ("CCCCN(CCCC)CCC(O)c1cc2c(Cl)cc(Cl)cc2c2cc(C(F)(F)F)ccc12 (stereo not drawn)", "Nuclear receptor subfamily 1 group I member 2 (Homo sapiens) (UniProt O75469)", "active"),
    ("CCCOc1sc(C(=O)N2CCC(c3cc(CN)ccc3F)CC2)c(C)c1Br", "Nuclear receptor subfamily 1 group I member 2 (Homo sapiens) (UniProt O75469)", "inactive"),
    ("C[C@]12CC[C@H]3C(=CCc4cc(O)ccc43)[C@@H]1CCC2=O", "Nuclear receptor subfamily 1 group I member 2 (Homo sapiens) (UniProt O75469)", "active"),
    ("CCOC(=O)COc1ccc(C)cc1", "Nuclear receptor subfamily 1 group I member 2 (Homo sapiens) (UniProt O75469)", "inactive"),
    ("CN(C)c1ccc(N=Nc2ccccc2C(=O)O)cc1", "Nuclear receptor subfamily 1 group I member 2 (Homo sapiens) (UniProt O75469)", "active"),
    ("CC(C)c1ccccc1N", "Nuclear receptor subfamily 1 group I member 2 (Homo sapiens) (UniProt O75469)", "active"),
    ("CCNc1nc(NC(C)CC)nc(OC)n1 (stereo not drawn)", "Nuclear receptor subfamily 1 group I member 2 (Homo sapiens) (UniProt O75469)", "active"),
    ("CCN(CC)CCNc1ccc(CO)c2sc3ccccc3c(=O)c12", "Nuclear receptor subfamily 1 group I member 2 (Homo sapiens) (UniProt O75469)", "inactive"),
    ("COc1nccnc1CC(C)C", "Nuclear receptor subfamily 1 group I member 2 (Homo sapiens) (UniProt O75469)", "inactive"),
    ("Cc1ccc(O)cn1", "Nuclear receptor subfamily 1 group I member 2 (Homo sapiens) (UniProt O75469)", "inactive"),
    ("Cc1cc2c(C(C)C)c(O)c(O)c(C=O)c2c(O)c1-c1c(C)cc2c(C(C)C)c(O)c(O)c(C=O)c2c1O", "Nuclear receptor subfamily 1 group I member 2 (Homo sapiens) (UniProt O75469)", "inactive"),
    ("C=C(C)C(=O)OCCC[Si](Cl)(Cl)Cl", "Nuclear receptor subfamily 1 group I member 2 (Homo sapiens) (UniProt O75469)", "inactive"),
    ("Cc1nc(Nc2ncc(C(=O)Nc3c(C)cccc3Cl)s2)cc(N2CCN(CCO)CC2)n1", "Nuclear receptor subfamily 1 group I member 2 (Homo sapiens) (UniProt O75469)", "active"),
    ("CCCCCCOc1ccc(O)cc1", "Nuclear receptor subfamily 1 group I member 2 (Homo sapiens) (UniProt O75469)", "active"),
]
